Where do these numbers come from? They come from ChEMBL document CHEMBL3616364.

assay: physchem; conditions: PBS
Starred links: 1 amine or outer side, 2 acyl side, 3 side chain; linkers in the order of their positions; H or OH if unused. Non-standard residues stand in square brackets, D forms with d. Residues, ends and D or L forms follow the SMILES beside them. Ile(ψThz) = CC[C@H](C)[C@H](N[*:1])c1nc(C(=O)[*:2])cs1; NMeA = CN[C@@H](C)C(=O)O
property-measured: solubility thermodynamic at 48 h (µM)

CC[C@H](C)[C@@H]1NC(=O)[C@@H]2CCCN2C(=O)[C@H](Cc2ccccc2)NC(=O)[C@H](C)N(C)C(=O)c2csc(n2)[C@H]([C@@H](C)CC)NC(=O)[C@@H]2CCCN2C1=O (cyclo(FPIP[Ile(ψThz)][NMeA])) | 801

[A] CC[C@H](C)[C@@H]1NC(=O)[C@@H]2CCCN2C(=O)[C@H](CC(C)C)NC(=O)[C@@H]2CCCN2C(=O)[C@H](Cc2ccccc2)NC(=O)[C@H](C)NC(=O)c2csc1n2 (cyclo(AFPLP[Ile(ψThz)]))
[B] CC[C@H](C)[C@@H]1NC(=O)c2csc(n2)[C@H]([C@@H](C)CC)NC(=O)[C@@H]2CCCN2C(=O)[C@H]([C@@H](C)CC)NC(=O)[C@@H]2CCCN2C(=O)[C@H](Cc2ccccc2)NC1=O (cyclo(FPIP[Ile(ψThz)]I))
Could you tell me which of these two has the smaller solubility thermodynamic at 48 h figure? First: A Second: B // respond with label for picked entry
B
(B: 6 µM, A: 122 µM)
